system: K562 cells; assay: K562 cell growth inhibition assay; type: cell-based; conditions: human chronic myeloid leukemia K562 cells, 72 h, cell count vs untreated control
valueKind: IC50
Answer as a quantity: numeral, then unit.

>>> endpointresult("COc1ccc2[nH]cc(C=C3C(=O)Nc4ccc(NC(=O)[C@H](C)NC(=O)[C@@H](N)CCC(=O)O)cc43)c2c1")
"14.8 µM"

Alright, here's another compound for you.
Input: Which IC50 reading was recorded for the compound O=C1Nc2ccc(C(=O)CN3CCCCC3)cc2C1=Cc1c[nH]c2ccccc12 ?
Output: 4.82 µM
